# TARGET_OR_SYSTEM: human FSH receptor (Homo sapiens, UniProt P23945)
# Sequence (P23945 18-695): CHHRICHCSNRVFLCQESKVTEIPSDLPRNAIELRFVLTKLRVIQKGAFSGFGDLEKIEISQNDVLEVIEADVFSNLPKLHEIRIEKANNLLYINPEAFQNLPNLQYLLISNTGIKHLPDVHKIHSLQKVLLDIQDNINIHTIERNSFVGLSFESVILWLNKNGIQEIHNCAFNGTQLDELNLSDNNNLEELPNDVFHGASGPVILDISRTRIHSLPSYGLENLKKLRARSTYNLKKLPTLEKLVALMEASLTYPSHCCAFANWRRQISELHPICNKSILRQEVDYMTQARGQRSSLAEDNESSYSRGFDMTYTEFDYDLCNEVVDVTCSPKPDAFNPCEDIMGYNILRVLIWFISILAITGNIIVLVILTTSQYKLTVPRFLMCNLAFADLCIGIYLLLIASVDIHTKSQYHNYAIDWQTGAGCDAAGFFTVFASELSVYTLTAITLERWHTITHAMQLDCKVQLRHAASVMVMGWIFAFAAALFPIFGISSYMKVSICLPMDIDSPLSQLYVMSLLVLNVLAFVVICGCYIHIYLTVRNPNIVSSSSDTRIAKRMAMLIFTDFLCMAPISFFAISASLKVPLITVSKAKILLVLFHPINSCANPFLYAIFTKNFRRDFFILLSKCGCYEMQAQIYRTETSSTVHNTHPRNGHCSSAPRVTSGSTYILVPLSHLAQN
# ASSAY_REMARKS: Follicle-Stimulating Hormone Receptor-Dependent Cre-Luciferase Reporter Gene Assay (CHO FSH-R 6CRE-Luc cells)
# EXPERIMENTAL_CONTEXT: dose-response format, in presence of EC50 of purified human FSH
pIC50: −log10 of the molar value.
I'd appreciate it if you could supply pIC50 values for the items below.

Which measured pIC50 value corresponds to O=C(NCC(O)c1ccccc1)c1ccc2n1Cc1ccccc1N(C(=O)COc1ccc(Cl)cc1)C2 (stereo not drawn) [Example 73] ?
4.60

What does the data say about its pIC50? Entry: COc1cc(C(=O)N2Cc3ccc(C(=O)NCc4ccccc4C(F)(F)F)n3Cc3ccccc32)ccc1-c1ccccc1C [Example 39]
< 4.52

Lab note: next compound to report on.
What measured pIC50 goes with CN(C)c1cccc(NC(=O)c2ccc3n2Cc2ccccc2N(C(=O)COc2ccc(Cl)cc2)C3)c1 [Example 101] ?
< 4.52

* * *

# TARGET_OR_SYSTEM: human FSH receptor (Homo sapiens)
# ASSAY_REMARKS: Follicle-Stimulating Hormone Receptor-Dependent Cre-Luciferase Reporter Gene Assay (CHO FSH-R 6CRE-Luc cells)
# EXPERIMENTAL_CONTEXT: dose-response format, in presence of EC50 of purified human FSH
Give pIC50 for every item shown.
Give bare numbers, as −log10 of the molar value.

Which value of pIC50 has been reported for `COc1cc(C(=O)N2Cc3ccc(C(=O)NCc4cccc(C(F)(F)F)c4)n3Cc3ccccc32)ccc1-c1ccccc1C` in the records?
5.36

Continuing:
What measured pIC50 goes with `Cc1ccccc1CNC(=O)c1ccc2n1Cc1ccccc1N(C(=O)c1ccc(-c3ccccc3C)c(C)c1)C2` ?
5.19

* * *

Consider the following compounds; for each one, report its melting point.

# get_value(readout='melting point', item= `Cc1ccccc1-c1ccc(C(=O)N2Cc3ccc(C(=O)NCc4cccc(N)c4)n3Cc3ccccc32)cc1C` )
105 to 115 °C

What does the data say about its melting point? Entry: `COc1cc(C(=O)N2Cc3ccc(C(=O)NCC(c4ccccc4)c4ccccc4)n3Cc3ccccc32)ccc1-c1ccccc1C`
129 to 132 °C

Dear colleague, could you please provide melting point for the compounds listed below?
1. CCOC(=O)c1ccc(NC(=O)c2ccc3n2Cc2ccccc2N(C(=O)COc2ccc(Cl)cc2)C3)cc1
2. COc1ccc(CNC(=O)c2ccc3n2Cc2ccccc2N(C(=O)c2ccc(-c4ccccc4C)c(OC)c2)C3)cc1

1: 199 to 201 °C; 2: 178 to 179 °C

List melting point for every entry below, keeping the order given.
1. COc1cc(C(=O)N2Cc3ccc(C(=O)NC(C)c4ccccc4)n3Cc3ccccc32)ccc1-c1ccccc1C (stereo not drawn)
2. O=C(NC1CCCc2ccccc21)c1ccc2n1Cc1ccccc1N(C(=O)CSc1ccc(Br)cc1)C2 (stereo not drawn)

1: 211 °C; 2: 163 to 165 °C

* * *

Assignment: determine reported inhibition at 30 µM for the given compounds.
# TARGET_OR_SYSTEM: human FSH receptor (Homo sapiens)
# Construct: host or cells: CHO-K1 (CHO FSH-R 6CRE-Luc, 1D7 cells)
# ASSAY_REMARKS: Follicle-Stimulating Hormone Receptor-Dependent Cre-Luciferase Reporter Gene Assay (CHO FSH-R 6CRE-Luc cells)
# Assay type: cell-based
# EXPERIMENTAL_CONTEXT: 2-dose format; concentration in parentheses 30 μM; inhibition of the response to EC50 of FSH
Answers are plain numbers, in %.

Before answering, review these 3 worked examples.
// lookup inhibition at 30 µM for Cc1ccccc1-c1ccc(C(=O)N2Cc3ccc(C(=O)NCCCc4ccccc4)n3Cc3ccccc32)cc1C [Example 25]
59

Query: inhibition at 30 µM; subject: Cc1ccccc1-c1ccc(C(=O)N2Cc3ccc(C(=O)NCCc4cccc(Cl)c4)n3Cc3ccccc32)cc1C [Example 26]
62

If you can, please state the reported inhibition at 30 µM value of COc1cc(C(=O)N2Cc3ccc(C(=O)NCc4ccccc4C)n3Cc3ccccc32)ccc1-c1ccccc1C [Example 41] .
62

// next entry
Entry Cc1ccc(CNC(=O)c2ccc3n2Cc2ccccc2N(C(=O)CSc2ccc(Br)cc2)C3)cc1 [Example 83] : reported inhibition at 30 µM = ?
24

* * *

# TARGET_OR_SYSTEM: human FSH receptor (Homo sapiens, UniProt P23945)
# ASSAY_REMARKS: Follicle-Stimulating Hormone Receptor-Dependent Cre-Luciferase Reporter Gene Assay (CHO FSH-R 6CRE-Luc cells)
# EXPERIMENTAL_CONTEXT: dose-response format, in presence of EC50 of purified human FSH
READOUT_TYPE: IC50

// lookup IC50 for `COc1cc(C(=O)N2Cc3ccc(C(=O)NCCc4cccc(Cl)c4)n3Cc3ccccc32)ccc1-c1ccccc1C`
> 30 µM

// each listed molecule needs a value for IC50
1. O=C(Nc1ccc2c(c1)C(O)c1ccccc1-2)c1ccc2n1Cc1ccccc1N(C(=O)COc1ccc(Cl)cc1)C2 (stereo not drawn)
2. Cc1ccccc1-c1ccc(C(=O)N2Cc3ccc(C(=O)NCc4ccccc4C(F)(F)F)n3Cc3ccccc32)cc1C

1: > 30 µM; 2: > 30 µM
